TARGET DESC: Aβ(1-42) (Homo sapiens)
Construct: dissolving Aβ(1-42) HCl salt in hexafluoroisopropanol (HFIP)
Sequence (P05067 672-713): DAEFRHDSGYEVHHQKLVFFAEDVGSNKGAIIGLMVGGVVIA
TEST METHOD NOTES: Thioflavin T fluorimetric assay of Aβ(1-42) aggregation
TEST CONDITIONS: 10 μM Aβ(1-42); read-out: IC50, inhibiting Aβ(1-42) aggregation (thioflavin-T fluorimetric assay)
pIC50: −log10 of the molar value.
MEASURED PARAMETER: pIC50

Example molecules with recorded pIC50:
molecule=CN(c1ccccc1)c1cnc(Nc2cccc(O)c2)nc1 measured_value=4.66
molecule=Oc1cccc(Nc2cnc(Nc3cccc(C(F)(F)F)c3)nc2)c1 measured_value=5.30
molecule=COc1cccc(Nc2cnc(Nc3ccc(Cl)c(Cl)c3)nc2)c1 measured_value=5.07

I: Oc1cccc(Nc2ncc(Nc3cccc(C(F)(F)F)c3)cn2)c1
II: Oc1cccc(Nc2cnc(Nc3cccc(O)c3)nc2)c1 [Example 2, 2,5-Bis-(3-hydroxyphenylamino)pyrimidine]
Incoming: Please indicate which entry, I or II , has the lower recorded pIC50 value. Kindly give the label for the entry you pick.
Outgoing: II
(II: 4.49, I: 4.89)

====

Each entry below lists one item and its recorded IC50 value.
System: SH SY5Y cells
TEST METHOD NOTES: Cell viability assay for amyloid toxicity using MTT reduction
Format: cell-based
TEST CONDITIONS: Homo sapiens, SH-SY5Y; 10 μM Aβ(1-42); 24 h incubation; read-out: IC50, protecting SH SY5Y cells from a toxic insult of Aβ(1-42) (MTT reduction as measure of cell viability)
Express the result in µM but write the number alone.

compound="CN(c1ccccc1)c1cnc(Nc2cccc(O)c2)nc1 [Example 11]" measured_value=30

Incoming: # query: IC50 of entry Oc1cccc(Nc2cnc(Nc3cccc(O)c3)nc2)c1 [Example 2, 2,5-Bis-(3-hydroxyphenylamino)pyrimidine]
Outgoing: 14
